Read-out: Cytochrome P450 3A4 (Homo sapiens) (UniProt P08684)
Sequence (P08684 whole entry, looked up): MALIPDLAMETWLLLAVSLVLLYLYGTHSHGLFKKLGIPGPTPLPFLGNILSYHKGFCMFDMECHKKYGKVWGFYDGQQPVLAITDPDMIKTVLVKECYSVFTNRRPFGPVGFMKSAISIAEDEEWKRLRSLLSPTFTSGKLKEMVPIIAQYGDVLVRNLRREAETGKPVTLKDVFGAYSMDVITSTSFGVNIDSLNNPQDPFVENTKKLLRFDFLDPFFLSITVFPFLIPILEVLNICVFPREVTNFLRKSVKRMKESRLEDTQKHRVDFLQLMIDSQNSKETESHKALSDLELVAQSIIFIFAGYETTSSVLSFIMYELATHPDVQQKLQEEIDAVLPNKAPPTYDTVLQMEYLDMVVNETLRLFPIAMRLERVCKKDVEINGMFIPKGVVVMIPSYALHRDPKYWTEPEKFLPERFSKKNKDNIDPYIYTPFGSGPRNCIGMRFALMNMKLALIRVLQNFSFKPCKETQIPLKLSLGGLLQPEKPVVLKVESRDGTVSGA
Test: CLD_CYP3A4_24hr: CellzDirect (CLD) Gene Expression Assay for xenobiotic metabolism (CYP3A4) at 24 hours (AID 2283689)
Records with an inconclusive call do not appear. Activity calls are given as the source filed them. The calls were made as follows: active = hit-call score of the fitted dose curve at least 0.9, where 1 is the maximum; inconclusive = response in the unintended direction; inactive = score below 0.9.
Pick one and only one: Yes (active), No (inactive)

# lookup: test call for "OB(O)O"
No

Please do the same for "COC(=O)c1cccc(C)c1S(=O)(=O)NC(=O)Nc1nc(OCC(F)(F)F)nc(N(C)C)n1" as well.
Yes

Try the molecule "COC(=O)CSc1cc(N=c2sc(=O)n3n2CCCC3)c(F)cc1Cl"
Yes

Now try CCOC(=O)C(C)Oc1ccc(Oc2cnc3cc(Cl)ccc3n2)cc1 (configuration not stated) .
No

Next record, please: "CCOC(=O)COc1cc(-n2ncc(C(F)(F)F)c(C)c2=O)c(F)cc1Cl"
Yes

Further, for "O=C(Nc1ccc([N+](=O)[O-])cc1Cl)c1cc(Cl)ccc1O" ?
No

Proceed to "CCCN(CCC)c1c([N+](=O)[O-])cc(C(F)(F)F)c(N)c1[N+](=O)[O-]"
Yes

Item: "CSC(=O)c1cccc2nnsc12"
No

###

Read-out: Monokine induced gamma interferon (MIG), CXCL9 (gene 4283)
Experiment: BSK_BE3C_MIG: BioMAP Diversity Plus: BE3C Assay for Monokine induced gamma interferon (MIG) Biomarker Activity (AID 2283035)
Settings: primary human bronchial epithelial cells; actives raise or lower the signal
Calls of active or inactive are those of the source. How the source made its calls: active means hit-call score of the fitted dose curve at least 0.9, where 1 is the maximum; inactive means score below 0.9.
Measured metric: AC50

[
  {
    "Chemical structure": "C[C@]12C[C@H](O)[C@H]3[C@@H](CCC4=CC(=O)CC[C@@]43C)[C@@H]1CC[C@@H]2C(=O)CO",
    "Measured metric": "AC50",
    "Result": "inactive"
  },
  {
    "Chemical structure": "COC(=O)c1cccc(C)c1S(=O)(=O)NC(=O)Nc1nc(OCC(F)(F)F)nc(N(C)C)n1",
    "Measured metric": "AC50",
    "Result": "inactive"
  },
  {
    "Chemical structure": "CCCN(CCC)c1c([N+](=O)[O-])cc(C(F)(F)F)c(N)c1[N+](=O)[O-]",
    "Measured metric": "AC50",
    "Result": "22.9 µM (active)"
  },
  {
    "Chemical structure": "C#C[C@]1(O)CC[C@H]2[C@@H]3CCC4=CC(=O)CC[C@@H]4[C@H]3CC[C@@]21CC",
    "Measured metric": "AC50",
    "Result": "inactive"
  }
]

###

Read-out: Interleukin-8 (IL8), CXCL8 (gene 3576)
Assay: BSK_3C_IL8: BioMAP Diversity Plus: 3C Assay for Interleukin-8 (IL8) Biomarker Activity (AID 2283020)
Settings: primary human endothelial cells (HUVEC); actives raise or lower the signal
Active and inactive are the calls of the source. The calls were made as follows: active = hit-call score of the fitted dose curve at least 0.9, where 1 is the maximum; inactive = score below 0.9.
Give one outcome, nothing more. List: active, inactive

Look up the recorded call for "CCCCCOC(=O)COc1cc(N2C(=O)C3=C(CCCC3)C2=O)c(F)cc1Cl" in this test.
inactive

Consider next the compound "CCCOC(=O)c1ccc(C(=O)OCCC)nc1" in the same way.
inactive

Same for CCCCCCC(C)OC(=O)COc1nc(F)c(Cl)c(N)c1Cl (configuration not stated)
active

Now try "COCCO" .
inactive

Ok, now "O=C(c1ccc(O)cc1O)c1ccc(O)cc1O"
inactive

Follow-up item: "C[C@]12C[C@H](O)[C@H]3[C@@H](CCC4=CC(=O)CC[C@@]43C)[C@@H]1CC[C@@H]2C(=O)CO"
inactive

Now give it for "c1ccc2[nH]c(-c3cscn3)nc2c1" too.
inactive

Another compound to check: CCCCOC(=O)C(C)Oc1ccc(Oc2ccc(C(F)(F)F)cn2)cc1 (configuration not stated)
inactive

Note, next up: "CSC(=O)c1cccc2nnsc12"
inactive

Cool, now C[C@]12CC[C@@H]3c4ccc(O)cc4C[C@@H](CCCCCCCCCS(=O)CCCC(F)(F)C(F)(F)F)[C@H]3[C@@H]1CC[C@@H]2O (some centres not stated)
inactive

Try the compound "COc1c(Cl)ccc(Cl)c1C(=O)O"
inactive

Input "S=C([S-])NCCNC(=S)[S-].[Mn+2]"
inactive

###

Read-out: Macrophage colony-stimulating factor (MCSF), CSF1 (gene 1435)
Experiment: BSK_LPS_MCSF: BioMAP Diversity Plus: LPS Assay for Macrophage colony-stimulating factor (MCSF) Biomarker Activity (AID 2283083)
Conditions: primary human HUVEC with PBMC; actives raise or lower the signal
Active and inactive are the calls of the source. The calls were made as follows: active = hit-call score of the fitted dose curve at least 0.9, where 1 is the maximum; inactive = score below 0.9.
Log the outcome using a class from Y = active, N = inactive

Example results:
[
  {
    "Molecule": "CCCCOC(=O)C(C)Oc1ccc(Oc2ccc(C(F)(F)F)cn2)cc1 (stereo not given)",
    "Assigned category": "N"
  },
  {
    "Molecule": "S=C(S)NCCNC(=S)S.[Mn+2].[S-]C([S-])=NCCN=C([S-])[S-].[Zn+2]",
    "Assigned category": "N"
  },
  {
    "Molecule": "COC(=O)CSc1cc(N=c2sc(=O)n3n2CCCC3)c(F)cc1Cl",
    "Assigned category": "N"
  }
]

Which result was noted for this molecule in the test: "c1ccc(Nc2ccccc2)cc1"
N

Request: "CCCCOC(=O)[C@@H](C)Oc1ccc(Oc2ccc(C(F)(F)F)cn2)cc1"
N

Try this molecule too: "COC(=O)c1ccc(CNS(C)(=O)=O)cc1S(=O)(=O)NC(=O)Nc1nc(OC)cc(OC)n1"
N

Try "CCCCCOC(=O)COc1cc(N2C(=O)C3=C(CCCC3)C2=O)c(F)cc1Cl" next.
N

Also, "Cc1nn(C)c(Oc2ccccc2)c1C=NOCc1ccc(C(=O)OC(C)(C)C)cc1" please.
Y

Okay, and "CCCN(CCC)c1c([N+](=O)[O-])cc(C(F)(F)F)c(N)c1[N+](=O)[O-]" ?
Y

Quick one: "COc1c(Cl)ccc(Cl)c1C(=O)O"
N

###

Read-out: ABC Transporter (ABCB11), ABCB11 (gene 8647)
Experiment: CLD_ABCB11_24hr: CellzDirect (CLD) Gene Expression Assay for ABC Transporter (ABCB11) at 24 hours (AID 2283674)
Inconclusive results are not listed. Active and inactive are the calls of the source. Rule for the calls: active = hit-call score of the fitted dose curve at least 0.9, where 1 is the maximum; inactive = score below 0.9.
Returns: one label drawn from active, inactive

As a guide, the following entries are already answered.
[
  {
    "Compound": "COCCO",
    "Assigned category": "inactive"
  },
  {
    "Compound": "CC(C)(c1ccc(O)cc1)c1ccc(O)cc1",
    "Assigned category": "inactive"
  },
  {
    "Compound": "N#CSCSc1nc2ccccc2s1",
    "Assigned category": "inactive"
  },
  {
    "Compound": "COC(=O)c1ccccc1C(=O)O",
    "Assigned category": "inactive"
  },
  {
    "Compound": "CCCN(CCC)C(=O)SCC",
    "Assigned category": "inactive"
  },
  {
    "Compound": "CCNc1nc(N)nc(Cl)n1",
    "Assigned category": "inactive"
  },
  {
    "Compound": "OB(O)O",
    "Assigned category": "inactive"
  },
  {
    "Compound": "CCOC(=O)C(C)Oc1ccc(Oc2cnc3cc(Cl)ccc3n2)cc1 (stereo not drawn)",
    "Assigned category": "inactive"
  },
  {
    "Compound": "COC(=O)c1ccc(I)cc1S(=O)(=O)NC(=O)Nc1nc(C)nc(OC)n1",
    "Assigned category": "inactive"
  },
  {
    "Compound": "CCCOC(=O)c1ccc(C(=O)OCCC)nc1",
    "Assigned category": "inactive"
  }
]

Hi, do you know how "COC(=O)c1ccc(CNS(C)(=O)=O)cc1S(=O)(=O)NC(=O)Nc1nc(OC)cc(OC)n1" came out in this test?
inactive

Field entry: CCC(C)OC(=O)N1CCCCC1CCO (stereo not drawn)
inactive

Okay, and "Cc1nn(C)c(Oc2ccccc2)c1C=NOCc1ccc(C(=O)OC(C)(C)C)cc1" ?
active

###

Read-out: growth arrest and DNA damage 45 (GADD45G), GADD45G (gene 10912)
Test: LTEA_HepaRG_GADD45G: Life Technologies and Expression Analysis (LTEA) Assay for growth arrest and DNA damage 45 (GADD45G) using HepaRG (AID 2283499)
Conditions: mRNA level, 48 h; actives raise or lower the signal
Active and inactive are the calls of the source. How the source made its calls: active means hit-call score of the fitted dose curve at least 0.9, where 1 is the maximum; inactive means score below 0.9.
Give your call using only these classes: active, inactive

Outcome logged for "COC(=O)CSc1cc(N=c2sc(=O)n3n2CCCC3)c(F)cc1Cl" in this assay:
inactive

Entry to check: "C#C[C@]1(O)CC[C@H]2[C@@H]3CCC4=CC(=O)CC[C@@H]4[C@H]3CC[C@@]21CC"
inactive

Next molecule up: CCCCCCC(C)OC(=O)COc1nc(F)c(Cl)c(N)c1Cl (stereo not given)
inactive

Now the same for "CCCCCOC(=O)COc1cc(N2C(=O)C3=C(CCCC3)C2=O)c(F)cc1Cl"
inactive

Again, but for "CCOC(=O)NCCOc1ccc(Oc2ccccc2)cc1"
active

And then "CCN(CC)C(=O)c1cccc(C)c1" , what is it?
inactive
